tested on: Cell Necrosis; test: Cell necrosis assay / cell viability assay (necrosis inhibitor activity); format: cell-based; settings: representative, exemplary data; read-out: Cell viability assay, EC50
pEC50: −log10 of the molar value.
Observation Type: pEC50

Solved entries (count: 5):
{"Compound": "O=C(N1CC[C@@H](Oc2ccccc2)C1)N1N=CCC1c1ccccc1 (single isomer, unassigned) [Compound 26A]", "pEC50": "6.00 to 9.00"}
{"Compound": "O=C(N1CCC1)N1N=CCC1c1ccccc1 (centres unmarked)", "pEC50": "5.00 to 9.00"}
{"Compound": "NC(=O)c1csc(OC2CN(C(=O)N3N=CCC3c3cc(F)cc(F)c3)C2)n1 (centres unmarked)", "pEC50": "7.00 to 9.00"}
{"Compound": "O=C(N1CC[C@@H](Oc2ccccc2)C1)N1N=CCC1c1ccccc1 (single isomer, unassigned) [Compound 26B]", "pEC50": "< 6.00"}
{"Compound": "O=C(N1CC(Cc2cccc(F)c2)C1)N1N=CCC1c1ccccc1 (centres unmarked)", "pEC50": "7.00 to 9.00"}

Task: I would be grateful if you could share the reported pEC50 for O=C(N1CC(Oc2ccc(F)cc2F)C1)N1N=CCC1c1cc(F)cc(F)c1 (centres unmarked) .
Output: 7.00 to 9.00

Task: I would be grateful if you could share the reported pEC50 for `O=C(N1CC(Oc2ccc(F)cc2F)C1)N1OCC[C@H]1c1ccccc1` .
Output: 7.00 to 9.00

Task: I would be grateful if you could share the reported pEC50 for O=C(NC1Cc2ccccc2C1)N1N=CCC1c1ccccc1 (centres unmarked) .
Output: 6.00 to 9.00
